Molecular target: APE1 (Homo sapiens)
Construct: made in house
Experiment: Fluorogenic kinetic qHTS APE1 incision assay (primary screen and retest of cherrypicked samples)
Assay type: biochemical
Settings: retest of cherrypicked sample; read-out: APE1 Retest IC50
pIC50: −log10 of the molar value.

COMPOUND	pIC50
NC(=O)c1ccc(NC(=O)COC(=O)c2cc3c(s2)CCC3)cc1	4.89
O=C(O)c1ccc(N2C(=O)c3cccc4c(C(=O)O)ccc(c34)C2=O)cc1	5.10
Cc1ccc(C)c(S(=O)(=O)Nc2ccc3oc(C)c(C(=O)O)c3c2)c1	4.69
CCc1cc(CNC(=O)c2ccc(OC3CCN(CCc4ccccc4)CC3)cc2)on1	5.19
COc1cc(N(C)C)cc(CN(C)CCc2ccc([N+](=O)[O-])cc2)c1O	6.52
CCNc1nc(NCC)n2c(SCC(=O)Nc3ccccc3C(F)(F)F)nnc2n1	4.89
CC(=O)N[C@H]1C(O[C@@H]2O[C@H](C[C@@H](O)[C@H]3O[C@@H](N4CCC(=O)NC4=O)[C@H](O)[C@@H]3O)[C@H](O)[C@H](O)[C@H]2NC(=O)/C=C/CCCCCCCCCCC(C)C)OC(CO)[C@@H](O)[C@@H]1O (stereo partly shown)	5.60

* * *

Biological target: APE1 (Homo sapiens, UniProt P27695)
Construct: made in house
Sequence (P27695 whole entry): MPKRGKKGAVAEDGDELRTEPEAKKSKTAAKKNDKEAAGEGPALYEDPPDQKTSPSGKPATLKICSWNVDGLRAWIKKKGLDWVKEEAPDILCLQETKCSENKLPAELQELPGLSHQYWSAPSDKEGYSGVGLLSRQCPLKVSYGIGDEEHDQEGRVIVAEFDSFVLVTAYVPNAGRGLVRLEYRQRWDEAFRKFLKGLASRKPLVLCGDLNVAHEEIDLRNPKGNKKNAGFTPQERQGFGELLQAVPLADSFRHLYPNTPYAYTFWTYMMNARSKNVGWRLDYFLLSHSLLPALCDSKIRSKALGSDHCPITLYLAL
Experiment: Gel-based APE1 incision assay with fluorescence (TAMRA) detection
Type: biochemical
Conditions: entries 113-223: fluorophore detection, estimated IC50; read-out: Gel-based electrophoretic separation assay with fluorophore detection, estimated IC50 (column headed Radiotracer Assay (%Activity))
pIC50: −log10 of the molar value.
MEASUREMENT LABEL: pIC50

COMPOUND	MEASUREMENT LABEL	OBSERVED RESULT
CCOC(=O)C1=C(C)N=c2s/c(=C\c3ccc(OCC(=O)O)cc3)c(=O)n2C1c1ccc(Cl)cc1 (stereo not shown) [MLS001178472]	pIC50	4.95
NS(=O)(=O)c1cccc(NC(=O)c2ccc3nc[nH]c3c2)c1 [MLS001177378]	pIC50	4.90
Cc1cccn2c(=O)c3cc(C(=O)NCc4ccco4)c(=N)n(C4CCCCC4)c3nc12 [MLS001217741]	pIC50	4.65
COCCN(CC(=O)Nc1cccc(C)c1C)C(=O)c1cc2c(s1)CCC2 [MLS002170765]	pIC50	4.75

* * *

Target: APE1 (Homo sapiens, UniProt P27695)
Construct: made in house
Assay: Fluorogenic kinetic qHTS APE1 incision assay (primary screen and retest of cherrypicked samples)
Type: biochemical
Conditions: initial quantitative high-throughput screen; read-out: APE1 qHTS IC50
MEASUREMENT LABEL: IC50 (µM)

SMILES NOTATION	UNIT NAME	OBSERVED RESULT
CC(=O)Nc1ccc(S(=O)(=O)NCCC(=O)OCC(=O)N2CCN(C(=O)c3ccco3)CC2)cc1	µM	16.8
Cc1sc2ncnc(SCC(=O)Nc3ncccc3O)c2c1C	µM	29.9
COc1ccc(CCn2c(O)cc3nn(-c4nc5ccccc5s4)c(=O)c-3c2C)cc1	µM	31.6
c1ccc2c(NCCc3c[nH]c4ccccc34)c3ccccc3nc2c1	µM	18.9

* * *

Target: APE1 (Homo sapiens, UniProt P27695)
Construct: made in house
Test: Fluorogenic kinetic qHTS APE1 incision assay (primary screen and retest of cherrypicked samples);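 also: purified APE1 cleaving a fluorophore/dark-quencher labelled 17-mer duplex DNA bearing a tetrahydrofuran AP site, fluorescence rise followed kinetically over the first 2 min, inhibition normalized to controls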
Type: biochemical
Settings: initial quantitative high-throughput screen; read-out: APE1 qHTS IC50

MOLECULE	IC50 (nM)
O=C1/C(=C/C=C/c2ccco2)SC(=S)N1NS(=O)(=O)c1ccccc1 [MLS000778639]	2500
CCNc1nc(NCC)n2c(SCC(=O)Nc3ccccc3C(F)(F)F)nnc2n1 [MLS001234389]	21200
N#C/C(=C\c1ccc(O)c(O)c1)C(=O)Nc1cccc2ncccc12 [MLS001173932]	3000
CCOc1ccc(NC(=O)c2cccc(-n3cccc3)c2)cc1S(=O)(=O)N1CCOCC1 [MLS002164959]	1300
O=C(/C=C/c1ccco1)NCc1ccco1 [MLS000768482]	22400
